# SYSTEM UNDER TEST: ALPP (Homo sapiens, UniProt P05187)
# Sequence (P05187 with tags, fused parts or gaps): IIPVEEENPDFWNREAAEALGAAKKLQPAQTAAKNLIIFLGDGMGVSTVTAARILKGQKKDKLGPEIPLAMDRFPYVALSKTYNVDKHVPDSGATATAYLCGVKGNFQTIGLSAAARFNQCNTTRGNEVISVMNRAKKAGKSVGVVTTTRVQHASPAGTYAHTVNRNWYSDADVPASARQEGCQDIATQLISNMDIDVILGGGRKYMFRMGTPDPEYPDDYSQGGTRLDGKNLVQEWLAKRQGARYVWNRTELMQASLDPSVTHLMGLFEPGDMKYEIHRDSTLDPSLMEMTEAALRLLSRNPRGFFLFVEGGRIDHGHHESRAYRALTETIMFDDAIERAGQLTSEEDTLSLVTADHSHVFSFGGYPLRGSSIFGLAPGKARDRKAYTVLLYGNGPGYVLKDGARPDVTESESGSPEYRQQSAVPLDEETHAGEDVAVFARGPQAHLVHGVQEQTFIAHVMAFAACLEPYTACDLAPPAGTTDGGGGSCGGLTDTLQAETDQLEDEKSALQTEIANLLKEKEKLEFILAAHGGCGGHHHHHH
# METHOD DESCRIPTION: BLI binding kinetics, human ALPP immobilised on AR2G sensors (KD / KD apparent)
# CONDITIONS: VHH domains
TEST READOUT: hALPP Ka

F05: ALPP/ALPPL2 targeting VHH domain, SEQ ID NO: 34 (protein) VHH: QVQLVESGGGLVQAGGSLRLSCAASGRAFGDYNIGWFRQAPGKEREFVARRTWDGSSTRYDDSVKGRFTVSIDNAKNTAYLQMNSLKTEDTAVYYCAAGRYSRVRGWEYDYWGQGTQVTVSS :: 13900 M⁻¹ s⁻¹
G03: ALPP targeting VHH domain, SEQ ID NO: 38 (protein) VHH: QVQLVESGGGTAQAGGSLRLACAASGRSVTMGWLGWVPRAERDDLEFITWFNWGTYYANSVNGRFTISTDNADNTVYPQMNRLKPENPAVYYCASFTGYRPLINRLNDVSDCGHGALVAVSS :: 47400 M⁻¹ s⁻¹

Read the next record carefully.
[ask] Fill blank: measured hALPP Ka of the molecule H09: ALPP targeting VHH domain, SEQ ID NO: 39 (protein) VHH: QVQLVESGGGSVQTGGSLRLSCAASGPSLSNYAMGWFRQAPGKEREFVAGISWGGGRTNYLDSVKGRFTISRDNAKNTMYLQMNSLKPEDTAVYYCAGRYGRGRDVEYEYDYWGQGTQVTVSS is ____.
[reply] 58600 M⁻¹ s⁻¹
